# System: MT4 CMV-EGFP cells
# Procedure Summary: Cytotoxicity in mock-infected MT4 CMV-EGFP cells
# Format: cell-based, human
# Experimental Context: fluorescence reduced by 50%
# CC50 per record follows

structure_smiles_string=N#Cc1cc2ccc(-c3ccncc3)cc2n(-c2ccc([N+](=O)[O-])cc2)c1=O measure_name=CC50 assay_value="> 32 µM"

Q) Observed CC50 on MT4 CMV-EGFP cells for CN(C)CCOc1ccc2cc(C#N)c(=O)n(-c3ccc([N+](=O)[O-])cc3)c2c1 , please.
A) > 32 µM

Q) Further, for N#Cc1c(N)c2cc(Cl)ccc2n(-c2ccc([N+](=O)[O-])cc2)c1=O ?
A) > 100 µM

Q) Entry to check: N#Cc1cc2ccc(OCCCN3CCOCC3)cc2n(-c2ccc([N+](=O)[O-])cc2)c1=O
A) > 32 µM

Q) Ok, now Cc1ccc(-n2c(=O)c(C#N)cc3ccc(-c4cc[nH]n4)cc32)cc1C#N
A) > 100 µM

Q) Same lookup for N#Cc1c(NCCO)c2ccccc2n(-c2ccc([N+](=O)[O-])cc2)c1=O , please.
A) 54.6 µM

Q) How about this molecule: N#Cc1cc2ccc(OCCN3CCCC3)cc2n(-c2ccc([N+](=O)[O-])cc2)c1=O
A) > 32 µM

Q) Field entry: CN(C)CCOc1ccc2c(c1)cc(C#N)c(=O)n2-c1ccc([N+](=O)[O-])cc1
A) > 32 µM

====

# Tested on: wild-type HIV-IIIB strain
# Procedure Summary: Antiviral analysis EGFP: anti-HIV activity in MT4 LTR-EGFP cells
# Type: cell-based, HIV-1
# Experimental Context: fluorescence of HIV-infected cells reduced by 50%, three days after infection
Measure Name: pEC50
Value format note: pEC50 is -log10 of concentration (mol/L); just state the number.

compound="N#Cc1cc2cc(OCCN)ccc2n(-c2ccc([N+](=O)[O-])cc2)c1=O [compound 86]" measured_on="wild-type HIV-IIIB strain" measure_name=pEC50 assay_value=5.93
compound="N#Cc1cc2ccc(-c3cccs3)cc2n(-c2ccc([N+](=O)[O-])cc2)c1=O [compound 36]" measured_on="wild-type HIV-IIIB strain" measure_name=pEC50 assay_value=6.12
compound="N#Cc1cc2ccc(-c3cnccn3)cc2n(-c2ccc([N+](=O)[O-])cc2)c1=O [compound 78]" measured_on="wild-type HIV-IIIB strain" measure_name=pEC50 assay_value=5.88
compound="Cc1ccc(-n2c(=O)c(C#N)cc3ccc(-c4cccc(CN(C)C)c4)cc32)cc1C#N [compound 152]" measured_on="wild-type HIV-IIIB strain" measure_name=pEC50 assay_value=6.24
compound="N#Cc1c(N)c2ccc(Cl)cc2n(-c2cccc([N+](=O)[O-])c2)c1=O [compound 112]" measured_on="wild-type HIV-IIIB strain" measure_name=pEC50 assay_value=5.25

Q) Which value of pEC50 has been reported for N#Cc1c(N)c2cc(F)c(Cl)cc2n(-c2ccc([N+](=O)[O-])cc2)c1=O [compound 108] in the records?
A) 6.05

Q) N#Cc1c(N)c2ccc(Cl)cc2n(-c2ccc([N+](=O)[O-])cc2)c1=O [compound 102] ?
A) 6.07

====

Item-by-item account of CC50
# Test system: MT4 CMV-EGFP cells
# Procedure Summary: Cytotoxicity in mock-infected MT4 CMV-EGFP cells
# Type: cell-based, human
# Experimental Context: fluorescence reduced by 50%
Just the number please, in µM, no unit attached.

Examples with their reported CC50 follow.
structure_smiles_string=N#Cc1cc2ccc(-c3ccoc3)cc2n(-c2ccc([N+](=O)[O-])cc2)c1=O measured_on="MT4 CMV-EGFP cells" measure_name=CC50 assay_value=38.1
structure_smiles_string=CNCCNc1c(C#N)c(=O)n(-c2ccc([N+](=O)[O-])cc2)c2ccccc12 measured_on="MT4 CMV-EGFP cells" measure_name=CC50 assay_value=53.2
structure_smiles_string=CN(C)CCNc1c(C#N)c(=O)n(-c2ccc([N+](=O)[O-])cc2)c2ccccc12 measured_on="MT4 CMV-EGFP cells" measure_name=CC50 assay_value=54.7

For the next question, use this compound.
Q) // lookup CC50 for N#Cc1c(NCCN)c2ccccc2n(-c2ccc([N+](=O)[O-])cc2)c1=O
A) 20.1

====

Reported CC50 values for a set of molecules
# Tested on: MT4 CMV-EGFP cells
# Procedure Summary: Cytotoxicity in mock-infected MT4 CMV-EGFP cells
# Type: cell-based, human
# Experimental Context: fluorescence reduced by 50%

Solved cases below.
structure_smiles_string=N#Cc1c(NCc2ccccn2)c2ccccc2n(-c2ccc([N+](=O)[O-])cc2)c1=O assay_value="> 100 µM"
structure_smiles_string=Cc1ccc(-n2c(=O)c(C#N)c(N)c3ccc(-c4ccsc4)cc32)cc1C#N assay_value="> 100 µM"
structure_smiles_string=N#Cc1cc2cc3c(cc2n(-c2ccc(Cl)nc2)c1=O)OCO3 assay_value="> 32 µM"

Field: next molecule
Q) # returns recorded CC50 (system: MT4 CMV-EGFP cells) for N#Cc1cc2ccc(-c3cncnc3)cc2n(-c2ccc([N+](=O)[O-])cc2)c1=O
A) > 100 µM

====

# Procedure Summary: Cytotoxicity in mock-infected MT4 CMV-EGFP cells
# Format: cell-based, human
# Experimental Context: human, fluorescence reduced by 50%
// reported CC50 at 3 days for each item listed

structure_smiles_string=N#Cc1c(NCCN2CCCC2)c2ccccc2n(-c2ccc([N+](=O)[O-])cc2)c1=O measure_name="CC50 at 3 days" assay_value="> 100 µM"
structure_smiles_string=COc1ccc2cc(C#N)c(=O)n(-c3ccc([N+](=O)[O-])cc3)c2c1 measure_name="CC50 at 3 days" assay_value="> 32 µM"
structure_smiles_string=Cc1c(C#N)c(=O)n(-c2ccc([N+](=O)[O-])cc2)c2ccccc12 measure_name="CC50 at 3 days" assay_value="> 100 µM"
structure_smiles_string=N#Cc1cc2ccc(=O)[nH]c2n(-c2ccc([N+](=O)[O-])cc2)c1=O measure_name="CC50 at 3 days" assay_value="> 32 µM"
structure_smiles_string=Cc1ccc2c(N(C)C)c(C#N)c(=O)n(-c3ccc([N+](=O)[O-])cc3)c2n1 measure_name="CC50 at 3 days" assay_value="> 32 µM"

Q) Any idea what CC50 at 3 days was measured for Cn1c(=O)oc2cc(-n3c(=O)c(C#N)cc4ccccc43)ccc21 ?
A) > 100 µM

Q) Consider next the compound COc1ccc2c(c1)cc(C#N)c(=O)n2-c1ccc([N+](=O)[O-])cc1 in the same way.
A) > 32 µM

====

# Tested on: MT4 CMV-EGFP cells
# Procedure Summary: Cytotoxicity in mock-infected MT4 CMV-EGFP cells
# Format: cell-based, human
# Experimental Context: fluorescence reduced by 50%
Measured CC50 accompanies every entry in the list below.

Solved entries (count: 2):
molecule=CCN(CC)CCOc1ccc2cc(C#N)c(=O)n(-c3ccc([N+](=O)[O-])cc3)c2c1 measured_on="MT4 CMV-EGFP cells" assay_value="> 32 µM"
molecule=Cc1ccc(-n2c(=O)c(C#N)cc3ccccc32)cn1 measured_on="MT4 CMV-EGFP cells" assay_value="> 32 µM"

Q) Suppose we examine the molecule N#Cc1c(NCC2CCNC2)c2ccccc2n(-c2ccc([N+](=O)[O-])cc2)c1=O (stereo not shown) ; what CC50 value has been reported?
A) > 100 µM

Q) Check N#Cc1cc2ccc(-c3ccc[nH]3)cc2n(-c2ccc([N+](=O)[O-])cc2)c1=O too.
A) 32.3 µM

====

# Tested on: wild-type HIV-IIIB strain
# Procedure Summary: Antiviral analysis EGFP: anti-HIV activity in MT4 LTR-EGFP cells
# Type: cell-based, HIV-1
# Experimental Context: fluorescence of HIV-infected cells reduced by 50%, three days after infection
Measure Name: pEC50
Would you please state pEC50, meaning minus log10 of the concentration in mol/L, as a bare number?

The cases that follow already have their pEC50 on record.
structure_smiles_string=CNCCNc1ccc2cc(C#N)c(=O)n(-c3ccc([N+](=O)[O-])cc3)c2c1 measured_on="wild-type HIV-IIIB strain" measure_name=pEC50 assay_value=5.86
structure_smiles_string=COc1cc2c(N)c(C#N)c(=O)n(-c3ccc([N+](=O)[O-])cc3)c2cc1OC measured_on="wild-type HIV-IIIB strain" measure_name=pEC50 assay_value=4.87
structure_smiles_string=COc1ccc2c(N)c(C#N)c(=O)n(-c3ccc([N+](=O)[O-])cc3)c2c1 measured_on="wild-type HIV-IIIB strain" measure_name=pEC50 assay_value=6.11
structure_smiles_string=CN(C)CCOc1ccc2c(c1)cc(C#N)c(=O)n2-c1ccc([N+](=O)[O-])cc1 measured_on="wild-type HIV-IIIB strain" measure_name=pEC50 assay_value=6.05
structure_smiles_string=N#Cc1cc2ccc(OCCCCN)cc2n(-c2ccc([N+](=O)[O-])cc2)c1=O measured_on="wild-type HIV-IIIB strain" measure_name=pEC50 assay_value=5.42
structure_smiles_string=CN(C)CCNc1c(C#N)c(=O)n(-c2ccc([N+](=O)[O-])cc2)c2ccccc12 measured_on="wild-type HIV-IIIB strain" measure_name=pEC50 assay_value=5.48

Let us examine a further case.
Q) Could you share which pEC50 value was measured for CNCCNc1c(C#N)c(=O)n(-c2ccc([N+](=O)[O-])cc2)c2ccccc12 ?
A) 5.47
